assay: Pharmacokinetics of vonoprazan and MI in rats with or without inhibitor pretreatment; type: in vivo, Sprague-Dawley rats; settings: male, Sprague-Dawley, rat, plasma, po, 2 mg/kg, Amlodipine group (10 mg/kg amlodipine 7 days), single gavage 2 mg/kg vonoprazan, rat plasma
Each item that follows carries a reported AUC(0-inf).
Please reply with the bare figure in ng·h/mL and do not write the unit itself.

>  <smi>
O=C(O)c1cc(-c2ccccc2F)n(S(=O)(=O)c2cccnc2)c1

>  <AUC(0-inf), ng·h/mL>
2580

$$$$

Prompt line: State its AUC(0-inf): CNCc1cc(-c2ccccc2F)n(S(=O)(=O)c2cccnc2)c1
Response line: 59

* * *

assay: Pharmacokinetics of vonoprazan and MI in rats with or without inhibitor pretreatment; assay type: in vivo, Sprague-Dawley rats; conditions: male, Sprague-Dawley, rat, plasma, po, 2 mg/kg, Amlodipine group (10 mg/kg amlodipine 7 days), single gavage 2 mg/kg vonoprazan, rat plasma; read-out: CLz/F (converted)
value type: CL/F (mL/min/kg)
Please reply with the bare figure in mL/min/kg and do not write the unit itself.

>  <smi>
O=C(O)c1cc(-c2ccccc2F)n(S(=O)(=O)c2cccnc2)c1

>  <CL/F / mL/min/kg>
13.2

$$$$

The record that follows has no CL/F shown yet.
Prompt line: State its CL/F: CNCc1cc(-c2ccccc2F)n(S(=O)(=O)c2cccnc2)c1
Response line: 614
